protocolDescription: In-vitro metabolism of LDAA compounds using liver microsomes
Assay type: in vitro ADME, human
conditions: incubation time 0 minutes; 1.0E−07M
Procedure: The stability of test compounds in pooled human liver microsomes was determined on 96-well plates, wherein the test compounds were quantified at five time points by HPLC-MS/MS analysis. […] In each assay the four reference compounds propranolol, imipramine, verapamil and terfenadine were tested, wherein the propranolol and the imipramine are known to be relatively stable, while the verapamil and the terfenadine are known to be readily metabolized in human liver microsomes. […]
Where a name gives a salt, the structure may show the parent alone. Non-standard residues stand in square brackets, D forms with d. Residues, ends and D or L forms follow the SMILES beside them. Dopa = N[C@@H](Cc1ccc(O)c(O)c1)C(=O)O

| compound | unitString | % Compound Remaining Mean |
| --- | --- | --- |
| N[C@@H](CSC[C@H](NC(=O)[C@@H](N)Cc1ccc(O)c(O)c1)C(=O)O)C(=O)O (single isomer, unassigned; peak 2) [LD-LA2 TFA salt, Levodopa Lanthionine Peak 2 TFA Salt] | % | 100 |
| NCCCC[C@H](NC(=O)[C@@H](N)Cc1ccc(O)c(O)c1)C(=O)O [LD-Lys TFA salt, Levodopa Lysine TFA Salt] (H-[Dopa]-Lys-OH) | % | 100 |
| NC(=O)C[C@H](NC(=O)[C@@H](N)Cc1ccc(O)c(O)c1)C(=O)O [LD-Asn TFA salt, Levodopa Asparagine TFA Salt] (H-[Dopa]-Asn-OH) | % | 100 |
| N[C@@H](Cc1ccc(O)c(O)c1)C(=O)N[C@@H](Cc1ccc(O)cc1)C(=O)O [LD-Tyr TFA salt, Levodopa Tyrosine TFA Salt] (H-[Dopa]-Tyr-OH) | % | 100 |
| N[C@@H](Cc1ccc(O)c(O)c1)C(=O)O [LD (control), L-3,4-dihydroxyphenylalanine, reference compound] | % | 100 |
| N[C@@H](CSC[C@@H](NC(=O)[C@@H](N)Cc1ccc(O)c(O)c1)C(=O)O)C(=O)O (single isomer, unassigned; peak 1) [LD-LA1 TFA salt, Levodopa Lanthionine Peak 1 TFA Salt] | % | 100 |
| N=C(N)NCCC[C@H](NC(=O)[C@@H](N)Cc1ccc(O)c(O)c1)C(=O)O [LD-Arg TFA salt, Levodopa Arginine TFA Salt] | % | 100 |
| NC(=O)CC[C@H](NC(=O)[C@@H](N)Cc1ccc(O)c(O)c1)C(=O)O [LD-Gln TFA salt, Levodopa Glutamine TFA Salt] (H-[Dopa]-Gln-OH) | % | 100 |
| N[C@@H](Cc1ccc(O)c(O)c1)C(=O)NCC(=O)O [LD-Gly TFA salt, Levodopa Glycine TFA Salt] | % | 100 |
| N[C@@H](Cc1ccc(O)c(O)c1)C(=O)N[C@@H](Cc1c[nH]c2ccccc12)C(=O)O [LD-Trp TFA salt, Levodopa Tryptophan] (H-[Dopa]-Trp-OH) | % | 100 |

###

protocolDescription: Comparative formulation tests, physical stability (Tables 32a-c, 33a-c)
Type: physicochemical
conditions: NB 144-18, ~0.4% Asc + ~0.4% NAC; LDAA TFA salt/CD formulation; Day 5, room temperature after two days at 2-8° C.
Structures can show the parent of a compound that is named as a salt. Non-standard residues stand in square brackets, D forms with d. Residues, ends and D or L forms follow the SMILES beside them. Dopa = N[C@@H](Cc1ccc(O)c(O)c1)C(=O)O

| compound | Physical stability (visual), Day 5 |
| --- | --- |
| N[C@@H](Cc1ccc(O)c(O)c1)C(=O)N[C@@H](Cc1ccc(O)cc1)C(=O)O [LD-Tyr TFA salt, Levodopa Tyrosine TFA Salt] (H-[Dopa]-Tyr-OH) | Stable |
| NCCCC[C@H](NC(=O)[C@@H](N)Cc1ccc(O)c(O)c1)C(=O)O [LD-Lys TFA salt, Levodopa Lysine TFA Salt] (H-[Dopa]-Lys-OH) | Precipitated |
| N[C@@H](Cc1ccc(O)c(O)c1)C(=O)N[C@@H](Cc1c[nH]c2ccccc12)C(=O)O [LD-Trp TFA salt, Levodopa Tryptophan] (H-[Dopa]-Trp-OH) | Stable |
| N=C(N)NCCC[C@H](NC(=O)[C@@H](N)Cc1ccc(O)c(O)c1)C(=O)O [LD-Arg TFA salt, Levodopa Arginine TFA Salt] | Stable |
| N[C@@H](CSC[C@@H](NC(=O)[C@@H](N)Cc1ccc(O)c(O)c1)C(=O)O)C(=O)O (single isomer, unassigned; peak 1) [LD-LA1 TFA salt, Levodopa Lanthionine Peak 1 TFA Salt] | Precipitated |
| N[C@@H](Cc1ccc(O)c(O)c1)C(=O)N[C@@H](CC(=O)O)C(=O)O [LD-Asp TFA salt, Levodopa Aspartic Acid] (H-[Dopa]-Asp-OH) | Stable |

###

recovery at 4 h, 10 μM reference
protocolDescription: Protein binding, equilibrium dialysis method
Type: in vitro ADME, human
conditions: human, human plasma, pH 7.4, 1.0E-05M; read-out: % Recovery 1st
Where a name gives a salt, the structure may show the parent alone. Non-standard residues stand in square brackets, D forms with d. Residues, ends and D or L forms follow the SMILES beside them. Dopa = N[C@@H](Cc1ccc(O)c(O)c1)C(=O)O
observedProperty: recovery at 4 h, 10 μM (%)

| compound | recordedResult |
| --- | --- |
| NC(=O)CC[C@H](NC(=O)[C@@H](N)Cc1ccc(O)c(O)c1)C(=O)O [LD-Gln TFA salt, Levodopa Glutamine TFA Salt] (H-[Dopa]-Gln-OH) | 77 |
| N[C@@H](Cc1ccc(O)c(O)c1)C(=O)N[C@@H](CC(=O)O)C(=O)O [LD-Asp TFA salt, Levodopa Aspartic Acid] (H-[Dopa]-Asp-OH) | 105 |
| N[C@@H](CSC[C@@H](NC(=O)[C@@H](N)Cc1ccc(O)c(O)c1)C(=O)O)C(=O)O (single isomer, unassigned; peak 1) [LD-LA1 TFA salt, Levodopa Lanthionine Peak 1 TFA Salt] | 75 |
| NCCCC[C@H](NC(=O)[C@@H](N)Cc1ccc(O)c(O)c1)C(=O)O [LD-Lys TFA salt, Levodopa Lysine TFA Salt] (H-[Dopa]-Lys-OH) | 12 |
| N[C@@H](Cc1ccc(O)c(O)c1)C(=O)N[C@@H](Cc1c[nH]c2ccccc12)C(=O)O [LD-Trp TFA salt, Levodopa Tryptophan] (H-[Dopa]-Trp-OH) | 68 |
| N=C(N)NCCC[C@H](NC(=O)[C@@H](N)Cc1ccc(O)c(O)c1)C(=O)O [LD-Arg TFA salt, Levodopa Arginine TFA Salt] | 6 |

###

protocolDescription: In-vitro absorption, Caco-2 A-B permeability
Assay type: in vitro ADME, human
conditions: human, Caco-2, pH 7.4, Caco-2 A-B; without verapamil; read-out: Percent Recovery 2nd
Where a name gives a salt, the structure may show the parent alone. Non-standard residues stand in square brackets, D forms with d. Residues, ends and D or L forms follow the SMILES beside them. Dopa = N[C@@H](Cc1ccc(O)c(O)c1)C(=O)O
Listing of recorded recovery at 60 min, 10 μM by entry.

| compound | recovery at 60 min, 10 μM / % |
| --- | --- |
| N[C@@H](CSC[C@@H](NC(=O)[C@@H](N)Cc1ccc(O)c(O)c1)C(=O)O)C(=O)O (single isomer, unassigned; peak 1) [LD-LA1 TFA salt, Levodopa Lanthionine Peak 1 TFA Salt] | 77 |
| N[C@@H](Cc1ccc(O)c(O)c1)C(=O)N[C@@H](Cc1ccc(O)cc1)C(=O)O [LD-Tyr TFA salt, Levodopa Tyrosine TFA Salt] (H-[Dopa]-Tyr-OH) | 39 |
| N[C@@H](Cc1ccc(O)c(O)c1)C(=O)O [LD (control), L-3,4-dihydroxyphenylalanine, reference compound] | 22 |

###

protocolDescription: In-vitro absorption, Caco-2 A-B permeability
Type: in vitro ADME, human
conditions: human, Caco-2, pH 7.4, Caco-2 A-B; without verapamil; 1.0E−05M; read-out: Permeability Mean
Counter-ions that a name gives are not always drawn. Non-standard residues stand in square brackets, D forms with d. Residues, ends and D or L forms follow the SMILES beside them. Dopa = N[C@@H](Cc1ccc(O)c(O)c1)C(=O)O
# if value of Papp A→B at 60 min, 10 μM reaches 1 ×10⁻⁶ cm/s, tag YES; if it stays below, tag NO

| molecule | group |
| --- | --- |
| NC(=O)CC[C@H](NC(=O)[C@@H](N)Cc1ccc(O)c(O)c1)C(=O)O [LD-Gln TFA salt, Levodopa Glutamine TFA Salt] (H-[Dopa]-Gln-OH) | YES |
| NCCCC[C@H](NC(=O)[C@@H](N)Cc1ccc(O)c(O)c1)C(=O)O [LD-Lys TFA salt, Levodopa Lysine TFA Salt] (H-[Dopa]-Lys-OH) | NO |
| N[C@@H](CSC[C@@H](NC(=O)[C@@H](N)Cc1ccc(O)c(O)c1)C(=O)O)C(=O)O (single isomer, unassigned; peak 1) [LD-LA1 TFA salt, Levodopa Lanthionine Peak 1 TFA Salt] | NO |
| NC(=O)C[C@H](NC(=O)[C@@H](N)Cc1ccc(O)c(O)c1)C(=O)O [LD-Asn TFA salt, Levodopa Asparagine TFA Salt] (H-[Dopa]-Asn-OH) | NO |
| N[C@@H](Cc1ccc(O)c(O)c1)C(=O)O [LD (control), L-3,4-dihydroxyphenylalanine, reference compound] | YES |
| N=C(N)NCCC[C@H](NC(=O)[C@@H](N)Cc1ccc(O)c(O)c1)C(=O)O [LD-Arg TFA salt, Levodopa Arginine TFA Salt] | NO |
| N[C@@H](CSC[C@H](NC(=O)[C@@H](N)Cc1ccc(O)c(O)c1)C(=O)O)C(=O)O (single isomer, unassigned; peak 2) [LD-LA2 TFA salt, Levodopa Lanthionine Peak 2 TFA Salt] | YES |
